# System: NOMO1
# assayDetails: cell viability relative to DMSO control; higher = less cytotoxic
# runParameters: RPMI 5 mM glucose + 10% dialyzed FBS; 48 h; 0.00702 µM
measure: cell viability (%)

• CC(C)(O)CNc1nc(Nc2ccnc(C(F)(F)F)c2)nc(-c2cccc(C(F)(F)F)n2)n1 = 120
• CCOc1cc2c(c(F)c1OCC)C(=N)N(CC(=O)c1cc(N3CCOCC3)c(OC)c(C(C)(C)C)c1)C2 = 121
• CC1=CC2=C(O1)C(=C3OC(=O)\C=C(C)/C3=C2)C = 99.8
• CCCn1c(=O)c2[nH]c(-c3cnn(Cc4cccc(C(F)(F)F)c4)c3)nc2n(CC)c1=O = 92.1
• NC\1=N\C(=O)N(\C=N1)[C@H]2C[C@H](O)[C@@H](CO)O2 = 107
• CC(Oc1ccc(O)cc1)(P(=O)(O)O)P(=O)(O)O = 87.9
• C[C@H]1[C@@H](CC(C[C@H]2O[C@@H]3O[C@]4(C)CC[C@H]5[C@H](C)CC[C@@H]([C@H]2C)[C@@]35OO4)C[S+](=O)([O-])c2ccc(COC(=O)N(C)C)cc2)O[C@@H]2O[C@]3(C)CC[C@H]4[C@H](C)CC[C@@H]1[C@@]24OO3 = 100
• Cc1cc(SCc2sc(-c3ccc(C(F)(F)F)c(F)c3)nc2C)ccc1OCC(=O)O = 93.5

---

# key: entry, value: cell viability
# Test system: P12-Ichikawa
# assayDetails: cell viability relative to DMSO control; higher = less cytotoxic
# runParameters: RPMI 5 mM glucose + 10% dialyzed FBS; 48 h; 5.12 µM
measure: cell viability (%)

- O=C(Oc1ccc([N+](=O)[O-])cc1)N1CCN(Cc2cccc(Oc3ccccc3)c2)CC1: 103
- CCC(CC)[C@H](NC(C)=O)[C@@H]1[C@H](O)[C@@H](C(=O)O)C[C@H]1NC(=N)N: 76.5
- COc1ccc(-c2nc3cc(C4=NNC(=O)CC4C)ccc3[nH]2)cc1 (stereo unspecified): 109
- COc1ccc2cccc(CCNC(C)=O)c2c1: 94.3
- COC1=CC=C(C=C1)C/2=C/OC3=CC(=CC=C3C2=O)O: 108
- COc1ccc2cc(-c3[nH]c(-c4ccc([S+](C)[O-])cc4)nc3-c3ccncc3)ccc2c1 (stereo unspecified): 120

---

# key: entry, value: cell viability
# Test system: P12-Ichikawa
# assayDetails: cell viability relative to DMSO control; higher = less cytotoxic
# runParameters: HPLM + 10% dialyzed FBS; 48 h; 0.0632 µM
measure: cell viability (%)

• COc1ccc(Cn2ccc3ccc(C(=O)NO)cc32)cc1 = 128
• CCOc1cc2c(c(F)c1OCC)C(=N)N(CC(=O)c1cc(N3CCOCC3)c(OC)c(C(C)(C)C)c1)C2 = 112
• CCCCOc1ccc(C(=O)Nc2ccc(F)cc2F)cc1 = 90.6
• N#Cc1c(C2CCNCC2)cc(-c2c(O)cccc2OCC2CC2)nc1N = 108
• NC12CC3CC(CC(C3)C1)C2 = 105
• Cn1c(=O)c2c(ncn2CC(O)CO)n(C)c1=O (stereo unspecified) = 114

---

# key: entry, value: cell viability
# System: P12-Ichikawa
# assayDetails: cell viability relative to DMSO control; higher = less cytotoxic
# runParameters: HPLM + 10% dialyzed FBS; 48 h; 15.4 µM
measure: cell viability (%)

* NC\1=N\C(=O)N(\C=N1)[C@H]2C[C@H](O)[C@@H](CO)O2 | 34.9
* CCOC(=O)c1ncn2c1CN(C)C(=O)c1cc(F)ccc1-2 | 67.7
* CC(C)[C@H](CO)Nc1nc(Nc2ccc(C(=O)O)c(Cl)c2)c2ncn(C(C)C)c2n1 | 96.3
* CCCn1c(=O)c2[nH]c(-c3cnn(Cc4cccc(C(F)(F)F)c4)c3)nc2n(CC)c1=O | 83.3
* COc1ccc2cccc(CCNC(C)=O)c2c1 | 92.7

---

# Tested on: SEM cells
# assayDetails: cell viability relative to DMSO control; higher = less cytotoxic
# runParameters: HPLM + 10% dialyzed FBS; 48 h; 46.1 µM
measure: cell viability

* CC(C)[C@H](CO)Nc1nc(Nc2ccc(C(=O)O)c(Cl)c2)c2ncn(C(C)C)c2n1 | 54.2%
* COc1cc2ncnc(Nc3ccc(F)c(Cl)c3)c2cc1OCCCN1CCOCC1 | 10.9%
* COC1=CC=C2C(=CC=NC2=C1)OC3=CC=C(NC(=O)\C4=C(C)\N(CC(C)(C)O)N(C4=O)C5=CC=CC=C5)C=C3F | 39.1%
* CCOc1cc2c(c(F)c1OCC)C(=N)N(CC(=O)c1cc(N3CCOCC3)c(OC)c(C(C)(C)C)c1)C2 | 59.8%
* O=C(C1CCCCC1)N1CC(=O)N2CCc3ccccc3C2C1 (stereo not drawn) | 75.8%
* N#Cc1c(C2CCNCC2)cc(-c2c(O)cccc2OCC2CC2)nc1N | 34.2%
* CC1(C)CC(=O)c2c(C(F)(F)F)nn(-c3ccc(C(N)=O)c(NC4CCC(OC(=O)CN)CC4)c3)c2C1 (stereo not drawn) | 17.8%
* CCOc1ccccc1OCCNC(C)Cc1ccc(OC)c([S+](N)(=O)[O-])c1 (stereo not drawn) | 85.8%
* CC(Oc1ccc(O)cc1)(P(=O)(O)O)P(=O)(O)O | 28.5%
* CC1OC(OC/2=C(/OC3=C(C(=CC(=C3)O)O)C2=O)C4=CC=C(O)C=C4)C(O)C(OC(C)=O)C1OC(C)=O (stereo not drawn) | 77.7%
* C[C@@]12OC(=O)[C@@]1(NC(=O)[C@@H]2CCCl)[C@@H](O)[C@H]\3CCC\C=C3 | 2.16%
* O=C(NC1CC1)c1cccc(-c2ccc3c(NC(=O)C4CC4)n[nH]c3c2)c1 | 18.8%
* C[Se]CCC(N)C(=O)O (stereo not drawn) | 72%
* CCN(CC)CCOC1=CC=C(NC2=NC=C3\C=C(/C(=O)N(C)C3=N2)C4=C(Cl)C=CC=C4Cl)C=C1 | 4.15%
* c1ccc2c(Oc3nc(Nc4ccc(N5CCOCC5)cc4)c4ncn(C5CCCCC5)c4n3)cccc2c1 | 67.1%
* Nc1ccc([S+](=O)([O-])Nc2ccccn2)cc1 | 96.9%
* N=C(N)c1ccc(OCCCCCOc2ccc(C(=N)N)cc2)cc1 | 46.4%
* Cc1nc2c([nH]1)-c1ccccc1N(C(=O)c1ccc(NC(=O)c3ccccc3-c3ccccc3)cc1)CC2 | 124%

---

# Test system: NOMO1
# assayDetails: cell viability relative to DMSO control; higher = less cytotoxic
# runParameters: RPMI 5 mM glucose + 10% dialyzed FBS; 48 h; 46.1 µM
measure: cell viability (%)

• O=C1[O][Pt]2([NH]C3CCCCC3[NH]2)[O]C1=O (centres undefined) = 9.17
• Cl.Cl.Fc1ccc(C(OCCN2CCN(CCCc3ccccc3)CC2)c2ccc(F)cc2)cc1 = 12.9
• CC1OC(OC/2=C(/OC3=C(C(=CC(=C3)O)O)C2=O)C4=CC=C(O)C=C4)C(O)C(OC(C)=O)C1OC(C)=O (centres undefined) = 77.2
• CN1C(=O)COc2c(C(=O)NC3CN4CCC3CC4)cc(Cl)cc21 (centres undefined) = 97.7
• CCOC(=O)c1ccc(C#Cc2ccc3c(c2)C(C)(C)CCS3)nc1 = 88.7
• CC1=C(/C=C/C(C)=C/C=C/C(C)=C/C(=O)Nc2ccc(O)cc2)C(C)(C)CCC1 = 3.24
• CN(C(=O)c1ccc(F)cc1C(F)(F)F)C1CCN(c2nnc(-c3ccnn3C)c3ccccc23)CC1 = 41.9
• Cc1cnc(Nc2ccc(OCCN3CCCC3)cc2)nc1Nc1cccc([S+](=O)([O-])NC(C)(C)C)c1 = 100
• Cn1cc(-c2ccncc2)c(-c2ccc(OCc3ccc4ccccc4n3)cc2)n1 = 98.4

---

# key: entry, value: cell viability
# Test system: P12-Ichikawa
# assayDetails: cell viability relative to DMSO control; higher = less cytotoxic
# runParameters: HPLM + 10% dialyzed FBS; 48 h; 0.0632 µM
measure: cell viability (%)

- CC(Oc1ccc(O)cc1)(P(=O)(O)O)P(=O)(O)O: 101
- COc1cc(/C=C/C(=O)CC(=O)/C=C/c2ccc(O)c(OC)c2)ccc1O: 110
- O=C1[O][Pt]2([NH]C3CCCCC3[NH]2)[O]C1=O (centres undefined): 118
- CN(C)c1ccc(C(=O)NCCCCCCC(=O)NO)cc1: 110
- COc1cc2c(NC3CCN(C(C)C)CC3)nc(C3CCCCC3)nc2cc1OCCCN1CCCC1: 121
- CC1=C(/C=C/C(C)=C/C=C/C(C)=C/C(=O)Nc2ccc(O)cc2)C(C)(C)CCC1: 90.8
- CCOC(=O)c1ccc(C#Cc2ccc3c(c2)C(C)(C)CCS3)nc1: 105
- CC1OC(OC/2=C(/OC3=C(C(=CC(=C3)O)O)C2=O)C4=CC=C(O)C=C4)C(O)C(OC(C)=O)C1OC(C)=O (centres undefined): 113
- CCc1cc(/C(C)=N/OCc2ccc(C3CCCCC3)c(C(F)(F)F)c2)ccc1CN1CC(C(=O)O)C1: 120
